The origin of these recorded values is ChEMBL document CHEMBL3352733.

# Efficacy values compiled below
Biological target: Oxysterols receptor LXR-beta (Homo sapiens) (UniProt P55055)
Sequence (whole entry): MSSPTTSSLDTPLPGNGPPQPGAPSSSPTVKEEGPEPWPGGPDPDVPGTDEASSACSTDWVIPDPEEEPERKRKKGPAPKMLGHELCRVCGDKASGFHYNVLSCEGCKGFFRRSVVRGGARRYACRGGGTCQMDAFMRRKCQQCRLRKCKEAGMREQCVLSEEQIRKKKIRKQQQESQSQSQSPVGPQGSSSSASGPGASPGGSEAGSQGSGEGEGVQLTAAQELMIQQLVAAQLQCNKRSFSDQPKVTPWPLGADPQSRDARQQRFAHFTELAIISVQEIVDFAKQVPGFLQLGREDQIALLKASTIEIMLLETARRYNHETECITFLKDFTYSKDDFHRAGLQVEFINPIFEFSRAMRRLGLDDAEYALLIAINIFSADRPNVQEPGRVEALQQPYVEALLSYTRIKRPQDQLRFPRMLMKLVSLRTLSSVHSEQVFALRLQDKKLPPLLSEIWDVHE
Test: Agonist activity at human LXRbeta expressed in CV1 cells after 20 hrs by luciferase reporter co-transfection assay relative to control
Assay type: cell-based
Conditions: CV-1

>  <smiles string>
Cc1nc(C(F)(F)F)cn1-c1ccc(-c2cc(F)c(CO)c(S(C)(=O)=O)c2)cc1-c1nc(C(C)C)oc1-c1ccc(OC(F)(F)F)cc1

>  <Efficacy (%)>
75

$$$$
>  <smiles string>
Cc1nc(C(F)(F)F)cn1-c1c(F)cc(-c2cccc(S(C)(=O)=O)c2)cc1-n1nncc1-c1ccc(Cl)cc1

>  <Efficacy (%)>
85

$$$$
>  <smiles string>
Cc1nc(C(F)(F)F)cn1-c1ccc(-c2cccc(S(C)(=O)=O)c2)cc1-n1nncc1Cc1cccc(Cl)c1

>  <Efficacy (%)>
100

$$$$
>  <smiles string>
Cc1nc(C(F)(F)F)c(Cl)n1-c1ccc(-c2cc(F)c(CO)c(S(C)(=O)=O)c2)cc1-n1nncc1-c1ccc(OC(F)(F)F)cc1

>  <Efficacy (%)>
116

$$$$
